experiment: Partition coefficient (logP); format: physicochemical; details: C-18 reversed-phase HPLC
Measure Name: logP

Molecule	logP
COc1cccc(C(=O)NC2CCN(Cc3ccc(F)cc3)CC2)c1OC	2.83
COc1cccc(C(=O)NC2CC3CCCC(C2)N3Cc2ccc(F)cc2)c1OC (configuration not stated)	2.86

###

biological target: D(2) dopamine receptor (Rattus norvegicus); assay: Inhibition of [125I]- NCQ 298 binding to D2 receptor of rat striatal tissue; assay type: tissue-based, Striatum
Sequence (P61169 whole entry): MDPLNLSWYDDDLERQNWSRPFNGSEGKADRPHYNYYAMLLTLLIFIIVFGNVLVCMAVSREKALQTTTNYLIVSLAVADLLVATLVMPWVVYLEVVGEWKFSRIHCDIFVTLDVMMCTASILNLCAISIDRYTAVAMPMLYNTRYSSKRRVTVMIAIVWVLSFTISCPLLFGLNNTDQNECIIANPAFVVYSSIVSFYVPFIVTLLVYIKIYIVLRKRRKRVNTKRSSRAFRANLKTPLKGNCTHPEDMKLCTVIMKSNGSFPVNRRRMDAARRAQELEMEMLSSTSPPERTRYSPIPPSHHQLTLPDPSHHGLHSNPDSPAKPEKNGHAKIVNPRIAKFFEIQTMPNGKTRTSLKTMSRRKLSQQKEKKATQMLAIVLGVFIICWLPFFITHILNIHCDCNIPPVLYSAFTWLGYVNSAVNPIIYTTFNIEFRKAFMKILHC
Measure Name: Ki (pM)

Compound	Measure Name	Test Result
COc1cccc(C(=O)NC2CCN(Cc3ccccc3)CC2)c1OC	Ki	630
COc1cc(Br)cc(C(=O)NC2CC3CCCC(C2)N3Cc2ccc(F)cc2)c1OC (stereo not drawn)	Ki	20
COc1cc(N)c(Cl)cc1C(=O)NC1CC2CCCC(C1)N2Cc1ccccc1 (stereo not drawn)	Ki	36
COc1cccc(C(=O)NC2CCN(Cc3ccc(F)cc3)CC2)c1OC	Ki	380
COc1cccc(C(=O)NC2CC3CCCC(C2)N3Cc2ccccc2)c1OC (stereo not drawn)	Ki	38

[I] COc1cc(Br)cc(C(=O)NC2CCN(Cc3ccccc3)CC2)c1OC
[II] COc1cc(Br)cc(C(=O)NC2CC3CCCC(C2)N3Cc2ccccc2)c1OC (stereo not drawn)
Short answer wanted: higher Ki, I or II ? Your choice should be expressed through its label.
I
(I: 310 pM, II: 33 pM)
